So I've got a bunch of compounds here, and I need their EC50 values.
experimental_target: DOP receptor (Homo sapiens, UniProt P41143)
Construct: expressed in transfected cells; host or cells: HEK293
Sequence (P41143 whole entry): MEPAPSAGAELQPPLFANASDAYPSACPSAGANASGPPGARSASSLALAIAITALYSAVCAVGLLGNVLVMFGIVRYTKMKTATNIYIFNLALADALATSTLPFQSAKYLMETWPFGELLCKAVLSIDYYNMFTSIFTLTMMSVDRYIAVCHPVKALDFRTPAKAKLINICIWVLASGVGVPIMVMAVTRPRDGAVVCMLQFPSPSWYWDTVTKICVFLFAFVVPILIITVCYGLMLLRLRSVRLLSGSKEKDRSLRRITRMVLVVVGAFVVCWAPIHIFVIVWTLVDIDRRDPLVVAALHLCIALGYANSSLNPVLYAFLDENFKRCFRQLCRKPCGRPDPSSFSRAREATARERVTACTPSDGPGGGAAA
measurement_protocol: cell-based
Where a SMILES comes first, the peptide text is derived from it. [ ]: non-standard residue; d: D form. Phe(4-NO2) = N[C@@H](Cc1ccc([N+](=O)[O-])cc1)C(=O)O; Phe(4-Cl) = N[C@@H](Cc1ccc(Cl)cc1)C(=O)O; Phe(4-F) = N[C@@H](Cc1ccc(F)cc1)C(=O)O; NMeR = CN[C@@H](CCCNC(=N)N)C(=O)O; Aoc = NCCCCCCCC(=O)O; Sar = CNCC(=O)O

Task item: So what EC50 did CC(C)C[C@H](NC(=O)[C@H](Cc1ccc(Cl)cc1)NC(=O)CN(C)C(=O)[C@@H](N)Cc1ccc(O)cc1)C(=O)N[C@@H](CCCCN)C(=O)N[C@H](CCCNC(=N)N)C(N)=O [KA306] (H-Y[Sar][Phe(4-Cl)]LK[dR]-NH2) get with DOP receptor (Homo sapiens, UniProt P41143)?
Reply: > 10 µM

Task item: So what EC50 did CC(C)C[C@H](NC(=O)[C@H](Cc1ccc([N+](=O)[O-])cc1)NC(=O)CNC(=O)CN(C)C(=O)[C@@H](N)Cc1ccc(O)cc1)C(=O)N[C@@H](CCCNC(=N)N)C(=O)N[C@H](CCCNC(=N)N)C(N)=O get with DOP receptor (Homo sapiens, UniProt P41143)?
Reply: > 10 µM

Task item: So what EC50 did CC(C)C[C@H](NC(=O)[C@H](Cc1ccc(F)cc1)NC(=O)CN(C)C(=O)[C@@H](N)Cc1ccc(O)cc1)C(=O)N(C)[C@@H](CCCNC(=N)N)C(=O)N[C@H](CCCNC(=N)N)C(N)=O [KA302] (H-Y[Sar][Phe(4-F)]L[NMeR][dR]-NH2) get with DOP receptor (Homo sapiens, UniProt P41143)?
Reply: 1.66 µM

Task item: So what EC50 did CC(C)C[C@H](NC(=O)[C@H](Cc1ccc([N+](=O)[O-])cc1)NC(=O)CN(C)C(=O)[C@@H](N)Cc1ccc(O)cc1)C(=O)N[C@@H](CCCNC(=N)N)C(=O)N(C)[C@@H](CCCNC(=N)N)C(=O)NCCCCCCCC(N)=O [KA313] (H-Y[Sar][Phe(4-NO2)]LR[NMeR][Aoc]-NH2) get with DOP receptor (Homo sapiens, UniProt P41143)?
Reply: > 10 µM

----------
experimental_target: DOP receptor (Homo sapiens)
Construct: expressed in transfected cells; host or cells: HEK293
measurement_protocol: cell-based
Where a SMILES comes first, the peptide text is derived from it. [ ]: non-standard residue; d: D form. Phe(4-NO2) = N[C@@H](Cc1ccc([N+](=O)[O-])cc1)C(=O)O; Phe(4-Cl) = N[C@@H](Cc1ccc(Cl)cc1)C(=O)O; NMeR = CN[C@@H](CCCNC(=N)N)C(=O)O; Ahx = NCCCCCC(=O)O; Sar = CNCC(=O)O
property_name: Selectivity (fold) KOP/DOP
Your answer should be a plain number; it is taken to be in fold.

Task item: Requested field: Selectivity (fold) KOP/DOP. Item: CC(C)C[C@H](NC(=O)[C@H](Cc1ccc([N+](=O)[O-])cc1)NC(=O)CN(C)C(=O)[C@@H](N)Cc1ccc(O)cc1)C(=O)N(C)[C@@H](CCCNC(=N)N)C(=O)N[C@H](CCCNC(=N)N)C(N)=O [KA303] (H-Y[Sar][Phe(4-NO2)]L[NMeR][dR]-NH2)
Reply: 98

Task item: Requested field: Selectivity (fold) KOP/DOP. Item: CC(C)C[C@H](NC(=O)[C@H](Cc1ccc(Cl)cc1)NC(=O)CN(C)C(=O)[C@@H](N)Cc1ccc(O)cc1)C(=O)N[C@@H](CCCNC(=N)N)C(=O)N[C@H](CCCNC(=N)N)C(=O)NCCCCCC(N)=O [KA304] (H-Y[Sar][Phe(4-Cl)]LR[dR][Ahx]-NH2)
Reply: 440

----------
experimental_target: DOP receptor (Homo sapiens, UniProt P41143)
Construct: expressed in transfected cells; host or cells: HEK293
measurement_protocol: cell-based
Where a SMILES comes first, the peptide text is derived from it. [ ]: non-standard residue; d: D form. Phe(4-NO2) = N[C@@H](Cc1ccc([N+](=O)[O-])cc1)C(=O)O; Phe(4-Cl) = N[C@@H](Cc1ccc(Cl)cc1)C(=O)O; NMeR = CN[C@@H](CCCNC(=N)N)C(=O)O; Aoc = NCCCCCCCC(=O)O; Sar = CNCC(=O)O
property_name: EC50

Task item: So what EC50 did C[C@@H](O)[C@H](NC(=O)[C@H](Cc1ccc(Cl)cc1)NC(=O)CN(C)C(=O)[C@@H](N)Cc1ccc(O)cc1)C(=O)N[C@@H](CCCNC(=N)N)C(=O)N[C@H](CCCNC(=N)N)C(N)=O [KA308] (H-Y[Sar][Phe(4-Cl)]TR[dR]-NH2) get with DOP receptor (Homo sapiens, UniProt P41143)?
Reply: > 10 µM

Task item: So what EC50 did CC(C)C[C@H](NC(=O)[C@H](Cc1ccc([N+](=O)[O-])cc1)NC(=O)CN(C)C(=O)[C@@H](N)Cc1ccc(O)cc1)C(=O)N[C@@H](CCCNC(=N)N)C(=O)N(C)[C@@H](CCCNC(=N)N)C(N)=O [KA310] (H-Y[Sar][Phe(4-NO2)]LR[NMeR]-NH2) get with DOP receptor (Homo sapiens, UniProt P41143)?
Reply: > 10 µM

Task item: So what EC50 did CC(C)C[C@H](NC(=O)[C@H](Cc1ccc(Cl)cc1)NC(=O)[C@H](C)NC(=O)[C@@H](N)Cc1ccc(O)cc1)C(=O)N[C@@H](CCCNC(=N)N)C(=O)N[C@H](CCCNC(=N)N)C(N)=O [KA307] (H-YA[Phe(4-Cl)]LR[dR]-NH2) get with DOP receptor (Homo sapiens, UniProt P41143)?
Reply: > 10 µM

Task item: So what EC50 did CC(C)C[C@H](NC(=O)[C@H](Cc1ccc([N+](=O)[O-])cc1)NC(=O)CNC(=O)CNC(=O)[C@@H](N)Cc1ccc(O)cc1)C(=O)N[C@@H](CCCNC(=N)N)C(=O)N[C@H](CCCNC(=N)N)C(N)=O get with DOP receptor (Homo sapiens, UniProt P41143)?
Reply: 2.18 µM

Task item: So what EC50 did CC(C)C[C@H](NC(=O)[C@H](Cc1ccc(Cl)cc1)NC(=O)CN(C)C(=O)[C@@H](N)Cc1ccc(O)cc1)C(=O)N[C@@H](CCCNC(=N)N)C(=O)N(C)[C@@H](CCCNC(=N)N)C(N)=O [KA309] (H-Y[Sar][Phe(4-Cl)]LR[NMeR]-NH2) get with DOP receptor (Homo sapiens, UniProt P41143)?
Reply: > 10 µM

Task item: So what EC50 did CC(C)C[C@H](NC(=O)[C@H](Cc1ccc([N+](=O)[O-])cc1)NC(=O)CN(C)C(=O)[C@@H](N)Cc1ccc(O)cc1)C(=O)N(C)[C@@H](CCCNC(=N)N)C(=O)N[C@H](CCCNC(=N)N)C(N)=O [KA303] (H-Y[Sar][Phe(4-NO2)]L[NMeR][dR]-NH2) get with DOP receptor (Homo sapiens, UniProt P41143)?
Reply: 1.32 µM

Task item: So what EC50 did CC(C)C[C@H](NC(=O)[C@H](Cc1ccc(Cl)cc1)NC(=O)CN(C)C(=O)[C@@H](N)Cc1ccc(O)cc1)C(=O)N[C@@H](CCCNC(=N)N)C(=O)N[C@H](CCCNC(=N)N)C(N)=O [KA206] (H-Y[Sar][Phe(4-Cl)]LR[dR]-NH2) get with DOP receptor (Homo sapiens, UniProt P41143)?
Reply: > 10 µM

Task item: So what EC50 did CC(C)C[C@H](NC(=O)[C@H](Cc1ccc([N+](=O)[O-])cc1)NC(=O)CN(C)C(=O)[C@@H](N)Cc1ccc(O)cc1)C(=O)N[C@@H](CCCNC(=N)N)C(=O)N[C@H](CCCNC(=N)N)C(N)=O [KA204] (H-Y[Sar][Phe(4-NO2)]LR[dR]-NH2) get with DOP receptor (Homo sapiens, UniProt P41143)?
Reply: > 10 µM

Task item: So what EC50 did CC(C)C[C@H](NC(=O)[C@H](Cc1ccccc1)NC(=O)CN(C)C(=O)[C@@H](N)Cc1ccc(O)cc1)C(=O)N[C@@H](CCCNC(=N)N)C(=O)N[C@H](CCCNC(=N)N)C(N)=O [KA203] (H-Y[Sar]FLR[dR]-NH2) get with DOP receptor (Homo sapiens, UniProt P41143)?
Reply: > 10 µM

Task item: So what EC50 did CC(C)C[C@H](NC(=O)[C@H](Cc1ccc(Cl)cc1)NC(=O)CN(C)C(=O)[C@@H](N)Cc1ccc(O)cc1)C(=O)N[C@@H](CCCNC(=N)N)C(=O)N(C)[C@@H](CCCNC(=N)N)C(=O)NCCCCCCCC(N)=O [KA312] (H-Y[Sar][Phe(4-Cl)]LR[NMeR][Aoc]-NH2) get with DOP receptor (Homo sapiens, UniProt P41143)?
Reply: > 10 µM

Task item: So what EC50 did CC(C)C[C@H](NC(=O)[C@H](Cc1ccc([N+](=O)[O-])cc1)NC(=O)CN(C)C(=O)[C@@H](N)Cc1ccc(O)cc1)C(=O)N[C@@H](CCCNC(=N)N)C(=O)N[C@H](CCCNC(=N)N)C(=O)NCCCCCCCC(N)=O [KA314] (H-Y[Sar][Phe(4-NO2)]LR[dR][Aoc]-NH2) get with DOP receptor (Homo sapiens, UniProt P41143)?
Reply: > 10 µM
